assayTarget: Peptidyl-prolyl cis-trans isomerase FKBP4 (Homo sapiens)
Sequence (whole entry): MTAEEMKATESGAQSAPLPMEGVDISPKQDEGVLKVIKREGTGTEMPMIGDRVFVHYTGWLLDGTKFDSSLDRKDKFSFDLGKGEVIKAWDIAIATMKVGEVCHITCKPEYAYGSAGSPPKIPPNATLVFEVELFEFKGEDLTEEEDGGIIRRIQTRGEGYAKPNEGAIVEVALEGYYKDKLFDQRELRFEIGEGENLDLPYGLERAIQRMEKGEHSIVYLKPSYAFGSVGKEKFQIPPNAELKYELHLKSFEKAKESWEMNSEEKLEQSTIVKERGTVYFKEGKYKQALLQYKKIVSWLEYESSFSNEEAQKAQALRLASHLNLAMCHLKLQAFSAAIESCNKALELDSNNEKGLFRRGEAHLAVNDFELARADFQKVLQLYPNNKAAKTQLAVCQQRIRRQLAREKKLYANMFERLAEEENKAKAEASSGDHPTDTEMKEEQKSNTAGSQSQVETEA
methodDescription: Increase in neurite outgrowth in chick embryo dorsal root ganglion at 100 pM in presence of NGF
Assay type: functional, tissue-based
experimentalContext: Gallus gallus, target entry is the homologue from another species
Activity calls are given as the source filed them. No cut-off for these calls is given here.
valueKind: Activity

Please review the entries below; each comes with its answer.
{"smilesRepresentation": "CC(C)(C)C(=O)C(=O)N1[C@H](C(=O)OCCCc2cccnc2)CSC1(C)C", "Activity": "Active"}
{"smilesRepresentation": "CCC(C)(C)C(=O)C(=O)N1[C@H](C(=O)OC/C=C/c2ccccc2)CSC1(C)C", "Activity": "Active"}
{"smilesRepresentation": "CCCCCCC(=O)C(=O)N1[C@H](C(=O)OCCCc2ccccc2)CSC1(C)C", "Activity": "Active"}
{"smilesRepresentation": "C=CCCCCCCCCOC(=O)[C@@H]1CSC(C)(C)N1C(=O)C(=O)C(C)(C)C", "Activity": "Active"}
{"smilesRepresentation": "CCCCCCC(=O)C(=O)N1[C@H](C(=O)OCCc2ccccc2Cl)CSC1(C)C", "Activity": "Active"}

Notebook: `CC(C)(C)C(=O)C(=O)N1[C@H](C(=O)OCCCc2ccccc2)CSC1(C)C` , Activity read as Active
